- System: BT-549 breast
- EXPERIMENT DESCRIPTION: NCI-60 one-dose screen, 48 h (100 = growth as untreated, 0 = no growth, -100 = all killed)
- EXPERIMENTAL SETUP: 10 µM unless noted
About 83,000 compounds went through this panel and 20% of them were active in at least one assay; those are over-represented in the sample as a whole.
ATTRIBUTE MEASURED: growth (%)
The figure you give is taken to be in %; do not add the unit.

Please look at this compound and report its growth: CC1CCCC(C[N+](C)(C)C)C1=O (stereo unspecified)
125

Please look at this compound and report its growth: C[Se]C(=O)c1ccccc1OC(C)=O
27.9

Please look at this compound and report its growth: C[N+]12CN3CN(CN(C3)C1)C2
113

###

- System: U251 CNS
- EXPERIMENT DESCRIPTION: NCI-60 one-dose screen, 48 h (100 = growth as untreated, 0 = no growth, -100 = all killed)
- EXPERIMENTAL SETUP: 10 µM unless noted
This is part of a sample that, as a whole, favours compounds with a hit. Of some 83,000 tested, about 20% had one in any assay. Activity calls are given as the source filed them. The calls were made as follows: active = growth percent below 10; inactive = the rest.
ATTRIBUTE MEASURED: growth

For orientation, consider the following solved cases.
Clc1cccc(N2COOC3(OOC2)C2CC4CC(C2)CC3C4)c1 = 35.8% (inactive)
Fc1c[c-]c(-c2ccccn2)c(F)c1.[CH3-].[Pt+2].c1ccc([PH+](c2ccccc2)c2ccccn2)cc1 = 6.42% (active)
Clc1cccc(NCOOC2(OOCNc3cccc(Cl)c3)CCCCC2)c1 = 61.4% (inactive)
Cn1cc(-c2csc(-c3cn(CCN4CCOCC4)c4ccc(F)cc34)n2)c2cccnc21 = 36.9% (inactive)
C=CC1=C[C@@H]2[C@@H]3O[C@]4(CC[C@H](O4)[C@@H](C)C[C@@H](O)C3=O)C[C@H](O)C3=NCC[C@@]32CC1 = -7% (active)
CCn1cnc2c(Nc3cccc(Cl)c3)nc(N[C@@H]3CCCC[C@@H]3N)nc21 = 6.89% (active)

# input for lookup
Given O=C1C(Cl)=C(N2CCOCC2)C(=O)c2ccccc21 , report its growth on U251 CNS.
67% (inactive)

###

- System: NCI-H23 lung
- EXPERIMENT DESCRIPTION: NCI-60 one-dose screen, 48 h
- EXPERIMENTAL SETUP: 10 µM unless noted
The panel holds about 83,000 compounds, 20% with a hit somewhere; the sample as a whole holds those more often. Active and inactive are the calls of the source. Rule for the calls: active = growth percent below 10; inactive = the rest.
Pick one and only one: active, inactive

C=C1C(=O)O[C@H]2[C@H]1CC/C(COC(=O)C(=O)c1cn(Cc3ccccc3)c3ccccc13)=C\CC[C@@]1(C)O[C@@H]21 = active

Status in this test for O=c1[nH]cc(N(CCCl)CCCl)c(=O)[nH]1 ?
inactive

Status in this test for COc1cc2c(cc1OCCCCn1c(-c3cccs3)nc3ccccc31)N=C[C@@H]1CCCN1C2=O ?
active

Status in this test for CC1=C(CCCOC(=O)CN)C2=C(C)C3(CC3)[C@@](C)(O)C(=O)C2=C1 ?
active

Status in this test for Nc1ccc2c(c1)oc1ccccc12 ?
inactive

Status in this test for COC1CC2c3ccccc3C1C(C)=[N+]2C (stereo not given) ?
inactive

Status in this test for CC(C)OC(=O)[C@H](C)NP(=O)(Oc1ccccc1)C1CCCN(O)C1=O (stereo not given in full) ?
inactive

Status in this test for c1cc2c(c3c1CCNC3)OCO2 ?
inactive

Status in this test for CC(=O)O[C@H]1CC[C@@]2(C)C(=CC[C@H]3[C@@H]4C[C@@H](N5CC5)[C@H](C(C)=O)[C@@]4(C)CC[C@@H]32)C1 ?
inactive

Status in this test for Cn1cc(C=O)c2nccnc21 ?
inactive
